- tested-target: Polyunsaturated fatty acid 5-lipoxygenase (Rattus norvegicus, UniProt P12527)
- Sequence (P12527 whole entry): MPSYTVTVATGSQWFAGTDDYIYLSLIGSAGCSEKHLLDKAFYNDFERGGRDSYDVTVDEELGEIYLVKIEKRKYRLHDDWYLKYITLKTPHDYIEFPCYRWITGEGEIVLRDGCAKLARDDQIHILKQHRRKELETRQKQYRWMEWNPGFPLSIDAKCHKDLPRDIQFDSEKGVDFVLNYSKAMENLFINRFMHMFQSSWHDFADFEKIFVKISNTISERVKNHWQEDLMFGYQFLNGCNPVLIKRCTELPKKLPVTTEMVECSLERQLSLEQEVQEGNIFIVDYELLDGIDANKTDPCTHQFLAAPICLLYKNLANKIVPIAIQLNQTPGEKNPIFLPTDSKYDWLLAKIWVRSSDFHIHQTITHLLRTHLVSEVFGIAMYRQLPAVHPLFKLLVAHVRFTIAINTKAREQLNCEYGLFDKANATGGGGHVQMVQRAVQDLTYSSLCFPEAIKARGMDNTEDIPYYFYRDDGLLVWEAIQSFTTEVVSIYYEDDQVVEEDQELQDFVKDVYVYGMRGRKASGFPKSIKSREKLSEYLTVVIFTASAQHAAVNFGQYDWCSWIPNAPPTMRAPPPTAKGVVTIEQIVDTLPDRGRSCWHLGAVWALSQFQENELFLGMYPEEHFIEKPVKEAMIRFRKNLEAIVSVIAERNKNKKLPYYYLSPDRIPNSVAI
- test-description: Concentration required to inhibit RBL-1 supernatant 5-lipoxygenase
pIC50: −log10 of the molar value.

{"columns": ["mol-smiles", "pIC50"],
 "data": [
  ["O=C(O)/C=C/c1nc(CSc2c(Cl)cccc2Cl)ccc1OCCc1ccccc1", 5.09]
]}
